# Test system: buttermilk-derived xanthine oxidase (Bos taurus, UniProt P80457)
# Sequence (P80457 whole entry): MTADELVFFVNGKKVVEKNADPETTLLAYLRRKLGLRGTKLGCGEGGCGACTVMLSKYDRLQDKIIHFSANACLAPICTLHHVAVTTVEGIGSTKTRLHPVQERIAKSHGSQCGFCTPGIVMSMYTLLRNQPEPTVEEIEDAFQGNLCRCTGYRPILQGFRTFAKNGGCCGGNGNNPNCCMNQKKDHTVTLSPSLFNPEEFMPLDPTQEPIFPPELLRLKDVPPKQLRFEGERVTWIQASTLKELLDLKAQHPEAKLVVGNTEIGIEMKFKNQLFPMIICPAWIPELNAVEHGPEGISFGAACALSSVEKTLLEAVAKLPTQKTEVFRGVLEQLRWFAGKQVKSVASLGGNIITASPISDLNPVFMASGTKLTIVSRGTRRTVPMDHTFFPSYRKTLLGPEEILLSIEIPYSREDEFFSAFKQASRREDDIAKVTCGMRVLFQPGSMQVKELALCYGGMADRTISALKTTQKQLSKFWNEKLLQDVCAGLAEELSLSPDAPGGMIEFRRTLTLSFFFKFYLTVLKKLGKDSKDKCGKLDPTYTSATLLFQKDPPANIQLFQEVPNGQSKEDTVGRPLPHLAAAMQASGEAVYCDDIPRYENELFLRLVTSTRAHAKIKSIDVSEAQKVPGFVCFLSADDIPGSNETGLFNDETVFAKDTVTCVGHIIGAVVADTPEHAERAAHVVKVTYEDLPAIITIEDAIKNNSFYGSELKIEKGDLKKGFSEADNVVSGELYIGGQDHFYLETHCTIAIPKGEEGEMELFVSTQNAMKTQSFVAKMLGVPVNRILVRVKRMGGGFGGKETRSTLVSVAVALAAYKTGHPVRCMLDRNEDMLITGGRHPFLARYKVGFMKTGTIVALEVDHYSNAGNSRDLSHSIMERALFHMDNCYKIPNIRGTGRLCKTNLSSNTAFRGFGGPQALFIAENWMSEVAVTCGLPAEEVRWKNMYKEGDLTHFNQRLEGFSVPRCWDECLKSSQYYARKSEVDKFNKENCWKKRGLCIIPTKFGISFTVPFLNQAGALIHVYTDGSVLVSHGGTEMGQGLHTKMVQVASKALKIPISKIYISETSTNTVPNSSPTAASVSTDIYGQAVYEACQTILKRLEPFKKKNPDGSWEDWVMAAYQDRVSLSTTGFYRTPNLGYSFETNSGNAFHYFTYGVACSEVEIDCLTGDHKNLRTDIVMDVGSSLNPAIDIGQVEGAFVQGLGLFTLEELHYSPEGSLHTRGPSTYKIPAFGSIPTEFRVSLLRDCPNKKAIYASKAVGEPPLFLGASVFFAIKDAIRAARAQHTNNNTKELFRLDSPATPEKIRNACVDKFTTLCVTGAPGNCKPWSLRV
Measurement label: pIC50
Units for pIC50: none; it is -log10 of a concentration expressed in mol/L.

Value lookup for pIC50; key = O=C(/C=C/c1ccc(O)c(O)c1)c1ccc(O)c(O)c1O
5.82
